experiment: qHTS drug screen for cell cycle checkpoint inhibitors in PARPi-resistant BRCA-mutant ovarian cancer cell lines. (AID 1963452); conditions: PEO1/OlaR viability, CellTiter-Glo luminescence, 96 h; measured here: PEO1 parental Z-AUC; stronger effect = lower value
measuredProperty: Z-AUC
Give a plain numeric answer without units written out.

*Q* // lookup Z-AUC for CCC1(c2ccc(N)cc2)CCC(=O)NC1=O (stereo not given)
*A* 0.942

*Q* Can you handle CN1C(=O)CCS(=O)(=O)C1c1ccc(Cl)cc1 (stereo not given) next?
*A* 1.76

*Q* Can you handle O=P1(N(CCCl)CCCl)NCCCO1 (stereo not given) next?
*A* 1.49

*Q* Can you handle COc1cccc2c1C(=O)c1c(O)c3c(c(O)c1C2=O)C[C@@](O)(C(=O)CO)CC3OC1CC(N2CCOC(OC)C2)C(O)C(C)O1 (stereo not given in full) next?
*A* -3.26

*Q* Can you handle C[C@]12CC[C@@H]3c4ccc(OC(=O)N(CCCl)CCCl)cc4CC[C@H]3[C@@H]1CC[C@@H]2OP(=O)(O)O next?
*A* 1.75

These measurements were taken from PubChem BioAssay (NCATS).
